System: MCF7
method-notes: NCI tumour cell line growth inhibition, 48 h
Activity calls are given as the source filed them. No stated cut-off is given here; in the data, active = GI50 up to about 1.1 µM and inactive = higher.
Write down the outcome that applies. Available outcomes: class 1 for active, class 0 for inactive

Answered examples (2):
- Oc1ccc2ccccc2c1C(c1ccc(Cl)cc1)c1c(O)ccc2ccccc12: class 0
- O=C1C(SCCO)=C(SCCO)C(=O)c2ccccc21: class 1

Each compound tested received a call. Report the one for CC(=O)NC1C(O)C(O)C(CO)OC1n1ncc(=O)[nH]c1=O (centres undefined) . class 0

Each compound tested received a call. Report the one for CCOC(=O)CCN1C(=O)c2ccc(NC(=O)C(=O)O)cc2S1(=O)=O . class 0

----------
Tested on: A549
method-notes: NCI tumour cell line growth inhibition, 48 h
The source made the active and inactive calls. Rule as the data show it: active = GI50 up to about 1.1 µM and inactive = higher.
reported-property: GI50

Example entries and their recorded answers appear below.
• CN(C(=O)/C=C/c1ccccc1)C1C2CN3CCC(O2)C13 (stereo not given) = > 100 µM (inactive)
• CC(=O)OCCOCn1c2c(c(=S)[nH]c1=O)CCC2 = > 100 µM (inactive)
• C#C[C@]1(O)CC[C@H]2[C@@H]3CCc4cc(OC(=O)c5cccc6cc7ccccc7nc56)ccc4[C@H]3CC[C@@]21C = 34 µM (inactive)
• COC(=O)/C(=C1\OC(=O)C(c2ccc(Cl)cc2)=C1O)c1ccc(Cl)cc1 = 24.8 µM (inactive)
• Cc1ccc(/N=N/C(=O)NNc2ccc(C)cc2Br)c(Br)c1 = 24.4 µM (inactive)

Count: 2. Required value per item: GI50.
1. O=C1CSC(c2ccccc2)N1c1ccc(-n2c(-c3ccccc3)nc3ccccc3c2=O)cc1 (stereo not given)
2. Cc1nc(Nc2ccccc2Cl)sc1C(=O)CC(=O)C(N)=O

1. > 74.6 µM (inactive)
2. 41.8 µM (inactive)

Count: 2. Required value per item: GI50.
1. O=C(O)CCCCCCC[C@@H]1S[C@H]1CCCCCCO
2. O=C1C=Cc2c(I)sc(I)c21

> 100 µM (inactive)
26.2 µM (inactive)

For the molecule O=S(=O)(CC(O)C(Cl)(Cl)Cl)NNc1ccccc1 (stereo not given) , give its reported GI50. > 100 µM (inactive)

----------
Tested on: UO-31
method-notes: NCI tumour cell line growth inhibition, 48 h
The source made the active and inactive calls. Cut-off read from the data, not from the text of the source: active = GI50 up to about 1.1 µM and inactive = higher.
Write down the outcome that applies. Available outcomes: active, inactive

- N#Cc1ccccc1Sc1ccccc1N: inactive
- CN(C(=O)C1=CCC2(CC1)OCCO2)c1ccccc1OS(=O)(=O)C(F)(F)F: inactive
- COc1ccc(-c2cc(-c3ccco3)c(C#N)c(=O)[nH]2)cc1: inactive
- CCOC(=O)Cc1ccc(Nc2nc3ccccc3nc2C(=O)OCC)cc1: inactive
- Cc1c([N+](=O)[O-])ccc2c(NCCCN(C)C)ccnc12: inactive

Each compound tested received a call. Report the one for CCC1=C(CC2NCCc3ccccc32)CC2c3cc(OC)c(OC)cc3CCN2C1 (centres undefined) . active

Each compound tested received a call. Report the one for COc1nc(Cl)nc(N[C@H](C)c2c3ccccc3cc3ccccc23)n1 . inactive

Each compound tested received a call. Report the one for O=C(O/N=C1\CCCC\C1=C/c1ccccc1)c1ccc([N+](=O)[O-])cc1 . inactive

Each compound tested received a call. Report the one for CCOC(=O)c1nc2ccc(C(F)(F)F)cc2nc1Oc1cc(OC)c(OC)c(OC)c1 . inactive

Each compound tested received a call. Report the one for Cc1cc(C)c(S(=O)(=O)N(CCCN)OCCCON(CCCN)S(=O)(=O)c2c(C)cc(C)cc2C)c(C)c1 . inactive

Each compound tested received a call. Report the one for O=Cc1c(-c2ccccc2)nc2ccccc2c1O . inactive

Each compound tested received a call. Report the one for COc1c2cc(C(C)(C)C)cc1Cc1cccc(c1O)Cc1cc(C(C)(C)C)cc(c1OC)Cc1cccc(c1O)Cc1cc(C(C)(C)C)cc(c1OC)Cc1cccc(c1O)C2 . inactive

Each compound tested received a call. Report the one for O=c1cc(-c2ccccc2)oc2ccc(-c3ccc4oc(-c5ccccc5)cc(=O)c4c3)cc12 . inactive

Each compound tested received a call. Report the one for Nc1nc(N)c2ncn(-c3ccc(Br)cc3)c2n1 . inactive

----------
Tested on: RPMI-8226
method-notes: NCI tumour cell line growth inhibition, 48 h
Calls of active or inactive are those of the source. Rule as the data show it: active = GI50 up to about 1.1 µM and inactive = higher.
Write down the outcome that applies. Available outcomes: 1 (active), 0 (inactive)

• COC(=O)CSSCc1ccc([N+](=O)[O-])cc1 = 0
• CC(C)(CN1CCCCC1)C(=O)/C=C/c1ccccc1 = 0
• CCN1CCN(c2nc3ccccc3c3c2CCOc2ccccc2-3)CC1 = 0
• Oc1cc(N2CCCC2)ccc1/C=N/N1C(=S)N(c2ccccc2)C(=N\c2ccccc2)/C1=N/c1ccccc1 = 0
• O=S(=O)(O)c1cccc2ccc(O)c(/N=N\c3ccc(S(=O)(=O)c4ccc(/N=N/c5c(O)ccc6cccc(S(=O)(=O)O)c56)cc4)cc3)c12 = 0

Each molecule tested received a call. Report the one for c1ccc(C2=NCCN2)c(C2=NCCN2)c1 . 0

Each molecule tested received a call. Report the one for CC(C)[Si](OC1=C(C(=O)N(C)c2ccccc2Cl)CCC1)(C(C)C)C(C)C . 0

Each molecule tested received a call. Report the one for COc1ccccc1NC(=O)CC(=O)NN . 0

Each molecule tested received a call. Report the one for Cc1c([N+](=O)[O-])ccc2c(NCCCN(C)C)ccnc12 . 0

Each molecule tested received a call. Report the one for O=c1cc(CC(O)(C(F)(F)Cl)C(F)(F)Cl)[nH]n1-c1ccccc1 . 0

Each molecule tested received a call. Report the one for NC(=O)c1cccc(C2OC(COP(=O)(O)O)C(O)C2O)c1 (centres undefined) . 0

Each molecule tested received a call. Report the one for C=CCN1C(=O)C[C@H](Cc2ccccc2)NC(=O)C[C@H](Cc2ccccc2)N(CC=C)C(=O)C[C@H](Cc2ccccc2)NC(=O)C[C@@H]1Cc1ccccc1 . 0

Each molecule tested received a call. Report the one for CCOC(=O)CC1NC(=O)CS1 (centres undefined) . 0

Each molecule tested received a call. Report the one for CCCCCC(=O)N[C@@H](c1ccco1)[C@@H](O)C(=O)O[C@H]1C[C@@]2(O)[C@@H](OC(=O)c3ccccc3)[C@@H]3[C@]4(OC(C)=O)CO[C@@H]4C[C@H](O)[C@@]3(C)C(=O)[C@H](OC(C)=O)C(=C1C)C2(C)C . 1

Each molecule tested received a call. Report the one for COC(=O)C(C(=O)C(=O)Nc1c(Cl)cc([N+](=O)[O-])cc1Cl)c1csc(-n2nc(C3=CCCCC3)cc2-c2ccccc2)n1 (centres undefined) . 0

Each molecule tested received a call. Report the one for O=C(CCc1ccccc1)ON1C(=S)C(c2ccccc2)(c2ccccc2)N=C1Sc1ccccc1 . 0

Each molecule tested received a call. Report the one for Cn1c(=O)nc2n(-c3ccc(O)cc3)c3ccccc3nc-2c1=O . 0

Each molecule tested received a call. Report the one for Cc1ccc(NC(=O)CC(=O)n2nc(-c3ccccc3)c(/N=N/c3ccccc3C(=O)O)c2-c2ccccc2)cc1 . 0

Each molecule tested received a call. Report the one for N#Cc1nc(C2CC2)oc1N . 0

----------
Answer each item with its documented GI50.
System: PC-3
method-notes: NCI tumour cell line growth inhibition, 48 h
Activity calls are given as the source filed them. Cut-off read from the data, not from the text of the source: active = GI50 up to about 1.1 µM and inactive = higher. Where a SMILES comes first, the peptide text is derived from it. [ ]: non-standard residue; d: D form. The star is where a group is joined. ξ: configuration not given here. ξF = NC(Cc1ccccc1)C(=O)O; Cbz = O=C(OCc1ccccc1)*; Aib = CC(C)(N)C(=O)O; NHNH2 = NN*

Example entries and their recorded answers appear below.
- COc1ccc(C(=O)/C=C/c2cc(O)c(O)c(F)c2F)c(OC)c1: 12.3 µM (inactive)
- COc1cc(/C=N/NC(=O)c2ccc(NC(C)=O)cc2OC)ccc1O: 43.5 µM (inactive)
- Cc1nc2ccc(Cl)cc2c2c1CCN2c1ccc(F)cc1: 11 µM (inactive)
- Nc1ccc(/N=N/c2c(S(=O)(=O)O)cc3ccccc3c2S(=O)(=O)O)cc1: > 100 µM (inactive)
- CSCCC(NC(=O)C(Cc1c[nH]c2ccccc12)NC(=O)CCNC(=O)OC(C)(C)C)C(=O)NC(CC(=O)O)C(=O)NC(Cc1ccccc1)C(N)=O (stereo not given): > 50 µM (inactive)
- CC(C)(NC(=O)OCc1ccccc1)C(=O)NC(Cc1ccccc1)C(=O)NN (stereo not given) (Cbz-[Aib]-[ξF]-NHNH2): > 100 µM (inactive)

Count: 2. Required value per item: GI50.
1. CSc1ccc(/C=C2\CNC/C(=C\c3ccc(SC)cc3)C2=O)cc1
2. Cc1ccn2c(=O)cc(CN3CCOCC3)nc2c1

1: > 100 µM (inactive); 2: > 100 µM (inactive)

Count: 2. Required value per item: GI50.
1. O=C1CCc2cc([N+](=O)[O-])ccc2O1
2. CCOC(=O)Cc1ccc(Nc2nc3ccccc3nc2C(=O)OCC)cc1

1. > 100 µM (inactive)
2. 62.5 µM (inactive)
